test: Pharmacokinetics analysis of 8r in SD rats; type: in vivo; conditions: male, SD, rat, blood, iv, 5 mg/kg
property: clearance (mL/min/kg)
I only need the number, in mL/min/kg, no unit after it.

Could you share which clearance value was measured for C[C@@H](Nc1nc2c(cnn2C2CCCC2)c(=O)[nH]1)C(=O)Nc1ccc(F)cc1 [Compound 8r] ?
29.7

* * *

experiment: Pharmacokinetics analysis of 8r in SD rats; type: in vivo; details: male, SD, rat, blood, iv, 5 mg/kg
property: Vd (L/kg)
I only need the number, in L/kg, no unit after it.

Could you share which Vd value was measured for C[C@@H](Nc1nc2c(cnn2C2CCCC2)c(=O)[nH]1)C(=O)Nc1ccc(F)cc1 ?
2.58

* * *

test: Stability in the mouse liver microsome; conditions: CD-1, mouse, liver microsomes, pH 7.4
property: microsomal CLint at 0.5 μM

| compound | result |
| --- | --- |
| COc1ccc(NC(=O)[C@@H](C)Nc2nc3c(cnn3C3CCCC3)c(=O)[nH]2)cc1 [Compound 3r] | 62 µL/min/mg |

Could you share which microsomal CLint at 0.5 μM value was measured for C[C@]12CC[C@H]3[C@@H](CCC4=CC(=O)CC[C@@]43C)[C@@H]1CC[C@@H]2O [testosterone] ?
692 µL/min/mg

* * *

experiment: Pharmacokinetics analysis of 8r in SD rats; type: in vivo; conditions: male, SD, rat, blood, po, 5 mg/kg
property: MRT inf (h)
I only need the number, in h, no unit after it.

Could you share which MRT inf value was measured for C[C@@H](Nc1nc2c(cnn2C2CCCC2)c(=O)[nH]1)C(=O)Nc1ccc(F)cc1 [Compound 8r] ?
3.94

* * *

experiment: Pharmacokinetics analysis of 3r in CD-1 mice; type: in vivo; conditions: male, CD-1, mouse, blood, po, 5 mg/kg
property: bioavailability (%)
I only need the number, in %, no unit after it.

Could you share which bioavailability value was measured for COc1ccc(NC(=O)[C@@H](C)Nc2nc3c(cnn3C3CCCC3)c(=O)[nH]2)cc1 [Compound 3r] ?
9.8

* * *

assay: Pharmacokinetics analysis of 3r in CD-1 mice; assay type: in vivo; conditions: male, CD-1, mouse, blood, iv, 5 mg/kg
property: clearance (mL/min/kg)
I only need the number, in mL/min/kg, no unit after it.

Could you share which clearance value was measured for COc1ccc(NC(=O)[C@@H](C)Nc2nc3c(cnn3C3CCCC3)c(=O)[nH]2)cc1 [Compound 3r] ?
23.8

* * *

assay: Pharmacokinetics analysis of 8r in SD rats; type: in vivo; conditions: male, SD, rat, blood, iv, 5 mg/kg
property: C0 (ng/mL)
I only need the number, in ng/mL, no unit after it.

Could you share which C0 value was measured for C[C@@H](Nc1nc2c(cnn2C2CCCC2)c(=O)[nH]1)C(=O)Nc1ccc(F)cc1 ?
19100

* * *

assay: Pharmacokinetics analysis of 8r in SD rats; type: in vivo; conditions: male, SD, rat, blood, po, 5 mg/kg
property: Tmax (h)
I only need the number, in h, no unit after it.

Could you share which Tmax value was measured for C[C@@H](Nc1nc2c(cnn2C2CCCC2)c(=O)[nH]1)C(=O)Nc1ccc(F)cc1 [Compound 8r] ?
1

* * *

test: Pharmacokinetics analysis of 3r in CD-1 mice; type: in vivo; conditions: male, CD-1, mouse, blood, iv, 5 mg/kg
property: Vd
Answer with the number, then the unit.

Could you share which Vd value was measured for COc1ccc(NC(=O)[C@@H](C)Nc2nc3c(cnn3C3CCCC3)c(=O)[nH]2)cc1 ?
1.53 L/kg

Source of measurements: paper PMC4281101
